Each recorded value in this set is attributed to the supplement of paper PMC9170038.

# Test system: MS2 coat protein
# protocolDetails: apparent KD of MS2 coat protein; designed switch direction (-1 OFF switch, 1 ON switch): -1; higher = weaker reporter binding
# cond: Eterna round: R95; input ligand: microRNA oligo, concentration not stated
quantityKind: apparent KD of MS2 coat protein (nM)
Give bare numbers, in nM.

Could you report apparent KD of MS2 coat protein for every entry in the following list?
1. GUGCAAUGAGGAUAUACGUUGGUGAACAUCUGUGUGCUCCUACAUGAGGAUCACCCAUGUAGAAGGCAUGUCAC [LRO-Excl2-18] (puzzle: Exclusion 2)
2. GAGUGACAUGAGGAUCACCCAUGUGAGGAUAUCGGACGGACCAAAUUAACAAUAAUUGCGAGAAGGCACAUCGG [Exclusion 1 V14] (puzzle: Exclusion 1)
3. UAUUAACAAGCAAGAUCCCACAUGAGGAUCACCCAUGUGCUCGUCUUAUAAGGUACUGUGACGAAAGUCACGGUACC [Sensor 3, v1 - 80] (puzzle: Sensor v3, turn-off variant 1)

1: 11.3; 2: 52.1; 3: 580

Could you report apparent KD of MS2 coat protein for every entry in the following list?
1. UUUUAACAUGAGGAUCACCCAUGUGAGGAUAUCGAAAUUUAUAUUAAUAUUAUUAAAACGAGAAGGCACAUUUU [JMF 35] (puzzle: Exclusion 1)
2. AUACCACGAGGAUAUCGUCUAUUUCACAUGAGGAUCACCCAUGUUAUCCUUGUUUCGUUUCGAGAAGGCGUGUUUU [JR_E5_Sub076] (puzzle: Exclusion 5)
3. UAGGUGCAAGGAUAUCGCCCGGAAGACAUGAGGAUCACCCAUGUACCGGGUGAGUAUGGGCGAGAAGGUGCAUAUU [Usergete] (puzzle: Exclusion 5)
4. CCAGCGCGUGUGAGGAUAUGCUGGUCCUUGGAUCAGCAGAAGGCACAUGAGGAUCACCCAUGUGAGUGCGUUGG [JL bmx4 3.35] (puzzle: Brourd's mod of Exclusion 4)
5. AAGAAACAUGAGGAUCACCCAUGUGAGGAUAUGUAAAGAAAAGAAAAAGAAAAGAAAAACAGAAGGCACAAAGA [JR_Exclusion1_Sub001] (puzzle: Exclusion 1)

1. 62.9
2. 43.8
3. 75.9
4. 16.2
5. 43.6

---

# Test system: MS2 coat protein
# protocolDetails: apparent KD of MS2 coat protein; designed switch direction (-1 OFF switch, 1 ON switch): -1; higher = weaker reporter binding
# cond: input ligand: FMN 200 uM
Label criterion met when apparent KD of MS2 coat protein is at or above 100 nM; anything below gets criterion not met.

These solved cases illustrate the format of a correct answer.
{"columns": ["primarySequence", "qualitativeLabel"],
 "data": [
  ["ACCAUGGUUGAAGCUAACAUGAGGAUCACCCAUGUAAGCUGCUAGGAUAUGCAGAGGCCCAGAAAGCAGAAGGAGCAGUACUGC [Diatzagequ] (Eterna round: R96, puzzle: Exclusion NG 3)", "criterion not met"],
  ["GUGUACAGAGGAUAUAUAUGGGCAUGGAAACAUGCAACUUCACAUGAGGAUCACCCAUGUAGAAGGCUGUACAC [Ex2: 712] (Eterna round: R96, puzzle: Exclusion 2)", "criterion met"],
  ["UAACAAAUGGUCAGGAUAUCAUUCCCGGCCCAGAGUGAGAAGGGACAUGAGGAUCACCCAUGUGUGAUUCUCAU [jl-ex4-4.55 ViennaUCT mod] (Eterna round: R97, puzzle: Brourd's mod of Exclusion 4)", "criterion met"],
  ["CCCGUGUGAGGAUAUACUCUAAGCAUUGACAGUUGCUACAGGUAGAAGGCACAUGAGGAUCACCCAUGUCCCGG [EX4 C.13] (Eterna round: R97, puzzle: Exclusion 4)", "criterion not met"],
  ["GUAUGUGACGAGGAUAUCACCUUGUUACUUAGAUGAGAAGGCGUCACAUGAGGAUCACCCAUGUGAUGAAAAGA [EX6 A.14] (Eterna round: R97, puzzle: Exclusion 6)", "criterion not met"],
  ["UUGACGUCGUCAGGAUAUAGUUUUAAUGUCAUGCGUAUGUUCUUACAUGAGGAUCACCCAUGUCGCUAGAAGGGACUAAAGAUU [JR_ExcNG2_Sub011] (Eterna round: R96, puzzle: Exclusion NG 2)", "criterion not met"],
  ["GUCCUGGACUAUCACAAGCACAUGAGGAUCACCCAUGUCAUGGGUAGAUCCAUAAAUAAAGAUACUGCUCGUCUUAU [Cac sensor turnoff var1 sub5] (Eterna round: R97, puzzle: Sensor, turn-off variant 1)", "criterion met"],
  ["AGCUGUGGCCGAGGAUAUCUACAUGAGGAUCACCCAUGUGGGUGAAAUAUCGGGAAAACCUCGAUGGAGAAGGCGGUCUCAGCA [Eli eng2 - 046] (Eterna round: R96, puzzle: Exclusion NG 2)", "criterion met"]
]}

Switching to the query record.
Kindly determine if apparent KD of MS2 coat protein recorded for UAUUAGCAAGUAAGGUCCCACAUGAGGAUCACCCAUGUGCUCGUCUUAUAAGGUACUGUGACGAAAGUCACGGUACC [Sensor 3, v1 - 95] (Eterna round: R96, puzzle: Sensor v3, turn-off variant 1) is above or exactly 100 nM.
criterion not met

---

# System: K4 kissing-loop RNA reporter;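 note: bound reporter read as fluorescence of individual clusters on recovered sequencing chips by microscopy, with normalized cluster intensities fitted with a binding model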
# protocolDetails: apparent KD of K4 kissing-loop reporter; higher = weaker reporter binding
# cond: Eterna round: R107; input ligand: tryptophan 2.4 mM
Provide the recorded apparent KD of K4 kissing-loop reporter for the entries that follow.
Numbers only, in nM.

{"columns": ["primarySequence", "readoutUnits", "apparent KD of K4 kissing-loop reporter"],
 "data": [
  ["AGGUCUGCACGAAGGAGCGCCCUGACAGGUUGCUGCCGUGGGCAGUGAUGUUGCUCAGUCCGGCAGGUAGGUCGCGUGCAGACCU", "nM", 161],
  ["CUAUAGACCCUUCGGAUAGUGAUGUUGUCACGAGGACCGGUACGGCCGCCACUCGCUGCCACCAUACCGCUUCACGGAACGAGCA [theeternabot_exclusion_KL_Trp_A_7]", "nM", 169],
  ["UAGGCCGCAUACAUUAGAUAAGGUACCGAUACCAGCCUCGCACCAGGCCCUUGGCAGCGGCAUCAAAUGGGUAGUGAUGUUACCU [theeternabot_exclusion_KL_Theo_A_20]", "nM", 136]
]}

Could you report apparent KD of K4 kissing-loop reporter for every entry in the following list?
1. CGCAUACCUGCGCUAGUAGUGAUGUUACAGCGAGGACCGGUACGGCCGCCACUCGUGACGGUCGCAAAACGCGUUGCAGAACACU [theeternabot_exclusion_KL_Trp_A_32]
2. CAAACGUGCGGUAGGUUCAAGCGCUGGGAAGGAGCGCAGAUGACUGCAGGUAGGUCGCCCAGUGAUGUUGGGCUUUCCACCUACG [Dilausma]
3. UGCACCAGUGAUGUUGGUCGGCACCGAGAUACCAGCUGAUCUCUUAGCCCUUGGCAGCUCUUUAUUCGCGUUAUCAGUUUCUUCG [theeternabot_sameState_KL_Theo_A_16]

322
99.9
345

---

# Tested on: MS2 coat protein
# protocolDetails: apparent KD of MS2 coat protein; higher = weaker reporter binding
# cond: Eterna round: R107; input ligand: theophylline 20 uM
quantityKind: apparent KD of MS2 coat protein
Returns: string containing the number followed by the unit.

Solved cases below.
{"columns": ["primarySequence", "result"],
 "data": [
  ["CUAUGUAUAUAUGCGAAAGCUACGUGUUGACGAGGACCGGUACGGCCGCCACUCGACAUGAGGAUCACCCAUGUAAUAUAUAUAG [BMP_BFE]", "0.173 µM"],
  ["AACAUGAGGAUCACCCAUGUCCCAUGUGAACGAGGACCGGUACGGCCGCCACUCGAAUGAGGCGGCACAUGAGGAUCACCCACAU [whbob_SS_trypto A_2s11]", "0.233 µM"]
]}

From here, focus on the item given below.
Returns the measured apparent KD of MS2 coat protein for the input sequence. Input: CUACAUUUGUAGAAACCGGUCAACAUUAUUCGAGGACCGGUACGGCCGCCACUCGUAUCAUUUGAUACAUGAGGAUCACCCAUGU [Tryptophan A 8]
0.0261 µM

---

# Test system: MS2 coat protein
# protocolDetails: apparent KD of MS2 coat protein; designed switch direction (-1 OFF switch, 1 ON switch): -1; higher = weaker reporter binding
# cond: input ligand: none
quantityKind: apparent KD of MS2 coat protein

Solved cases below.
{"columns": ["primarySequence", "apparent KD of MS2 coat protein"],
 "data": [
  ["AAAUUGGUAGAGGAUAUUGUACAGGAAACGGUGCGAGAAGGUUGCACAUGAGGAUCACCCAUGUUUAGUUGCGA [EX6 #47] (Eterna round: R97, puzzle: Exclusion 6)", "32.4 nM"],
  ["AAGAGUGAGCGAGGAUAUUGAUUUUGGCGUAGUCAAGAAGGCGCGUACAUGAGGAUCACCCAUGUGCUCAGAGCGCAAAAGGGU [Gequon] (Eterna round: R96, puzzle: Exclusion NG 1)", "68.2 nM"],
  ["CCACGACAUGAGGAUCACCCAUGUGAGGAUAUGGCCUGUAAGGCGUGAGCUGAAUCAAUCAGAAGGCGCGUGGG [salish99_ex1_r4_057] (Eterna round: R97, puzzle: Exclusion 1)", "50.6 nM"],
  ["AGUACUAACACGUGAGUGUUAGUACAAUAAGCUUGUGAAACAUGAGGAUCACCCAUGUCCUCAUAAGCUCGUCUUAU [salish99_TOv2_r3_061] (Eterna round: R96, puzzle: Sensor v3, turn-off variant 2)", "18.5 nM"]
]}

From here, focus on the item given below.
Returns the measured apparent KD of MS2 coat protein for the input sequence. Input: CUUAUGUGAGGAUAUGGUGUUGGCCACAGGAAAAAGAUCCUCCAGAAGGCACAUGAGGAUCACCCAUGUAGUGA [Jolly's Folly 30 - Jieux - Exclusion 4] (Eterna round: R96, puzzle: Exclusion 4)
57.2 nM
